Recorded values, source patent US20240002497A1.

# Assayed System: T1, huNav1.7α + β1-β2-β3 (human, UniProt Q15858 1-1988; A5A6L6 19-218; O60939 30-215; Q2KI11 23-215)
# T1 construct: Cell line (CHO FlpIn, HEK FlpIn, transient HEK293T) is named under assay; also called huNav1.7-beta1-beta2-beta3; human Nav1.7α with Navβ1, Navβ2 and Navβ3
# Protocol Description: binding FACS, CHO FlpIn cells
pEC50: −log10 of the molar value.
Label 1.0 when pEC50 >= 8; otherwise 0.0.

Could you please find out whether F010302361 (VHH) VHH: EVQLVESGGGVVQPGGSLRLSCAASHRQFIRDVFTGWYRQAPGKQRELVARIYEGGNTQYADSVKGRFTISRDNAKKTVYLQMNSLRPEDTALYYCLFSGTISTGREYRSGDYWGQGTLVTVSS has pEC50 that meets 8 or exceeds it?
1.0

Could you please find out whether F010301881 (VHH, G54W vs F0103464B09 (Kabat)) VHH: EVQLVESGGGLVQPGGSLRLSCATTSRAFIRDVFTGWYRRVPGKERELVARIYNWGNTNYADFAKGRFSISRDNAKKMVTLRMSNLKPEDTGVYYCLFSGTINTGREYRSGDYWGQGTLVTVSS has pEC50 that meets 8 or exceeds it?
1.0

Could you please find out whether F010302368 (VHH) VHH: EVQLVESGGGVVQPGGSLRLSCAASSRAFIRDVFTGWYRQAPGKQRELVARIYNGGNTNYADSVKGRFTISRDNAKKTVYLQMNSLRPEDTALYYCLFSGTISTGREYRSGDYWGQGTLVTVSS has pEC50 that meets 8 or exceeds it?
1.0

Could you please find out whether F010301609 (VHH, Y100fQ vs F0103362B08 (Kabat)) VHH: EVQLVESGGGLVQAGGSLRLSCAASVRPFSTSAMGWFRQAPEKEREAVAGILWNGIVTYYADSVKGRFTISRDNAKNEVYLQMNKLKPEDTAVYYCALDRDYGGRSFSAQEYEYWGQGTLVTVSS has pEC50 that meets 8 or exceeds it?
0.0

Could you please find out whether F010301596 (VHH, G99A vs F0103362B08 (Kabat)) VHH: EVQLVESGGGLVQAGGSLRLSCAASVRPFSTSAMGWFRQAPEKEREAVAGILWNGIVTYYADSVKGRFTISRDNAKNEVYLQMNKLKPEDTAVYYCALDRDYAGRSFSAYEYEYWGQGTLVTVSS has pEC50 that meets 8 or exceeds it?
0.0

Could you please find out whether F010301580 (VHH, R27T vs F0103362B08 (Kabat)) VHH: EVQLVESGGGLVQAGGSLRLSCAASVTPFSTSAMGWFRQAPEKEREAVAGILWNGIVTYYADSVKGRFTISRDNAKNEVYLQMNKLKPEDTAVYYCALDRDYGGRSFSAYEYEYWGQGTLVTVSS has pEC50 that meets 8 or exceeds it?
0.0
